Listed here are compounds together with their documented Activity.
Biological target: Protein cereblon/Tyrosine-protein phosphatase non-receptor type 1 (Homo sapiens, UniProt P18031+Q96SW2)
Sequence (P18031 whole entry, looked up): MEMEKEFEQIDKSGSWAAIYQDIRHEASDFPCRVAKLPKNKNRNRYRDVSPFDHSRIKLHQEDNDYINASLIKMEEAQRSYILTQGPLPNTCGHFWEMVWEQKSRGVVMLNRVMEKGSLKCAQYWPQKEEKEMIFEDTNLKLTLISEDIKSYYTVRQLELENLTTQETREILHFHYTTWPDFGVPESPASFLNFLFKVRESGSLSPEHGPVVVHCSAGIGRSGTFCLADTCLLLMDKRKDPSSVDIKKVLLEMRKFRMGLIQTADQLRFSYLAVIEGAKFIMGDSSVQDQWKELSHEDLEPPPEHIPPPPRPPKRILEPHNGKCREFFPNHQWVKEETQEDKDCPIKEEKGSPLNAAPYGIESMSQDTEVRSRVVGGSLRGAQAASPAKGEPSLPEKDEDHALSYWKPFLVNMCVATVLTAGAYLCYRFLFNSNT
Sequence (Q96SW2 whole entry, looked up): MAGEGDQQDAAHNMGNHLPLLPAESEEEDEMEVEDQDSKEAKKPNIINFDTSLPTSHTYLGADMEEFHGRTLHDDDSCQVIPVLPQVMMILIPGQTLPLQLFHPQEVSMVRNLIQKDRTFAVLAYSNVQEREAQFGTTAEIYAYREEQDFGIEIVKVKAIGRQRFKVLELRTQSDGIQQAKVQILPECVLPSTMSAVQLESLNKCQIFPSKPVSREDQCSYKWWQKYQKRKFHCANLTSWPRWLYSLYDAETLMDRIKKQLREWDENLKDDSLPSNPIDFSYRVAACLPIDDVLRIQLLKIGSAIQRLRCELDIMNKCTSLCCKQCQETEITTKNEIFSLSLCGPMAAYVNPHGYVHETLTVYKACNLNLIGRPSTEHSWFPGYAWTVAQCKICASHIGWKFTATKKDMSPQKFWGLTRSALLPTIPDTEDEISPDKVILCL
Assay: PROTAC activity at PTP1B/CRBN in insulin treated human HepG2 cells assessed as protein degradation at 500 nM incubated for 48 hrs by Western blot analysis relative to control
Format: cell-based
// note: answer is a bare numeric in %

| compound | unit.name | Activity |
| --- | --- | --- |
| CC1(C)CC[C@]2(C(=O)NCCCOCCOCCOCCCNc3cccc4c3C(=O)N(C3CCC(=O)NC3=O)C4=O)CC[C@]3(C)C(=CC[C@@H]4[C@@]5(C)CC[C@H](O)C(C)(C)[C@@H]5CC[C@]43C)[C@@H]2C1 (stereo partly drawn) | % | 53 |
| CC1(C)CC[C@]2(C(=O)NCCCCCCOCCOCC(=O)Nc3cccc4c3C(=O)N(C3CCC(=O)NC3=O)C4=O)CC[C@]3(C)C(=CC[C@@H]4[C@@]5(C)CC[C@H](O)C(C)(C)[C@@H]5CC[C@]43C)[C@@H]2C1 (stereo partly drawn) | % | 26 |

// switching to the query compound
Given item O=C1CCC(N2C(=O)c3cccc(NC(=O)COCCOCCOCCOCCCCCCNC(=O)c4cccc(NC(=O)CSc5nc6ccccc6[nH]5)c4)c3C2=O)C(=O)N1 (stereo not drawn) , the value recorded as its Activity is 44

---

Biological target: Protein cereblon/Tyrosine-protein phosphatase non-receptor type 1 (Homo sapiens, UniProt P18031+Q96SW2)
Assay: PROTAC activity at PTP1B/CRBN in insulin treated human HepG2 cells assessed as protein degradation at 500 nM incubated for 48 hrs by Western blot analysis relative to control
Assay type: cell-based
Listed here are compounds together with their documented Activity.

Worked examples follow.
| compound | assay.value |
| --- | --- |
| CC1(C)CC[C@]2(C(=O)NCCCCCCOCCOCCCCCC(=O)Nc3cccc4c3C(=O)N(C3CCC(=O)NC3=O)C4=O)CC[C@]3(C)C(=CC[C@@H]4[C@@]5(C)CC[C@H](O)C(C)(C)[C@@H]5CC[C@]43C)[C@@H]2C1 (some centres undefined) | 36% |
| C[C@H]1[C@H](C)CC[C@]2(C(=O)NCCCCCCOCCOCC(=O)Nc3cccc4c3C(=O)N(C3CCC(=O)NC3=O)C4=O)CC[C@]3(C)C(=CC[C@@H]4[C@@]5(C)CC[C@H](O)C(C)(C)[C@@H]5CC[C@]43C)[C@H]12 (some centres undefined) | < 5% |
| C[C@H]1[C@H](C)CC[C@]2(C(=O)NCCCCCCOCCOCCCCCC(=O)Nc3cccc4c3C(=O)N(C3CCC(=O)NC3=O)C4=O)CC[C@]3(C)C(=CC[C@@H]4[C@@]5(C)CC[C@H](O)C(C)(C)[C@@H]5CC[C@]43C)[C@H]12 (some centres undefined) | 29% |

// switching to the query compound
Given item C[C@H]1[C@H](C)CC[C@]2(C(=O)NCCCCCCOCCOCCOCCOCCCCCC(=O)Nc3cccc4c3C(=O)N(C3CCC(=O)NC3=O)C4=O)CC[C@]3(C)C(=CC[C@@H]4[C@@]5(C)CC[C@H](O)C(C)(C)[C@@H]5CC[C@]43C)[C@H]12 (some centres undefined) , the value recorded as its Activity is 12%

---

Biological target: Protein cereblon/Tyrosine-protein phosphatase non-receptor type 1 (Homo sapiens, UniProt P18031+Q96SW2)
Test: PROTAC activity at PTP1B/CRBN in insulin treated human HepG2 cells assessed as protein degradation at 125 nM incubated for 48 hrs by Western blot analysis relative to control
Type: cell-based
true (1) if Activity is below 40%. false (0) if not; exact matches included in false (0).

Consider the worked cases shown below.
| compound | assigned.label |
| --- | --- |
| CC1(C)CC[C@]2(C(=O)NCCCOCCOCCOCCCNc3cccc4c3C(=O)N(C3CCC(=O)NC3=O)C4=O)CC[C@]3(C)C(=CC[C@@H]4[C@@]5(C)CC[C@H](O)C(C)(C)[C@@H]5CC[C@]43C)[C@@H]2C1 (stereo not given in full) | true (1) |
| CC1(C)CC[C@]2(C(=O)NCCCOCCCCOCCCNc3cccc4c3C(=O)N(C3CCC(=O)NC3=O)C4=O)CC[C@]3(C)C(=CC[C@@H]4[C@@]5(C)CC[C@H](O)C(C)(C)[C@@H]5CC[C@]43C)[C@@H]2C1 (stereo not given in full) | true (1) |
| C[C@H]1[C@H](C)CC[C@]2(C(=O)NCCCCCCOCCOCCOCCOCC(=O)Nc3cccc4c3C(=O)N(C3CCC(=O)NC3=O)C4=O)CC[C@]3(C)C(=CC[C@@H]4[C@@]5(C)CC[C@H](O)C(C)(C)[C@@H]5CC[C@]43C)[C@H]12 (stereo not given in full) | false (0) |
| CC1(C)CC[C@]2(C(=O)NCCCCCCOCCOCCOCCOCCCCCC(=O)Nc3cccc4c3C(=O)N(C3CCC(=O)NC3=O)C4=O)CC[C@]3(C)C(=CC[C@@H]4[C@@]5(C)CC[C@H](O)C(C)(C)[C@@H]5CC[C@]43C)[C@@H]2C1 (stereo not given in full) | false (0) |

Field: next compound
Does this compound meet the criterion Activity < 40%? C[C@H]1[C@H](C)CC[C@]2(C(=O)NCCCCCCOCCOCCOCC(=O)Nc3cccc4c3C(=O)N(C3CCC(=O)NC3=O)C4=O)CC[C@]3(C)C(=CC[C@@H]4[C@@]5(C)CC[C@H](O)C(C)(C)[C@@H]5CC[C@]43C)[C@H]12 (stereo not given in full)
true (1)
